So I've got a bunch of molecules here, and I need their pIC50 values.
measured.target: human (hACC2) (Homo sapiens)
Sequence (O00763 whole entry): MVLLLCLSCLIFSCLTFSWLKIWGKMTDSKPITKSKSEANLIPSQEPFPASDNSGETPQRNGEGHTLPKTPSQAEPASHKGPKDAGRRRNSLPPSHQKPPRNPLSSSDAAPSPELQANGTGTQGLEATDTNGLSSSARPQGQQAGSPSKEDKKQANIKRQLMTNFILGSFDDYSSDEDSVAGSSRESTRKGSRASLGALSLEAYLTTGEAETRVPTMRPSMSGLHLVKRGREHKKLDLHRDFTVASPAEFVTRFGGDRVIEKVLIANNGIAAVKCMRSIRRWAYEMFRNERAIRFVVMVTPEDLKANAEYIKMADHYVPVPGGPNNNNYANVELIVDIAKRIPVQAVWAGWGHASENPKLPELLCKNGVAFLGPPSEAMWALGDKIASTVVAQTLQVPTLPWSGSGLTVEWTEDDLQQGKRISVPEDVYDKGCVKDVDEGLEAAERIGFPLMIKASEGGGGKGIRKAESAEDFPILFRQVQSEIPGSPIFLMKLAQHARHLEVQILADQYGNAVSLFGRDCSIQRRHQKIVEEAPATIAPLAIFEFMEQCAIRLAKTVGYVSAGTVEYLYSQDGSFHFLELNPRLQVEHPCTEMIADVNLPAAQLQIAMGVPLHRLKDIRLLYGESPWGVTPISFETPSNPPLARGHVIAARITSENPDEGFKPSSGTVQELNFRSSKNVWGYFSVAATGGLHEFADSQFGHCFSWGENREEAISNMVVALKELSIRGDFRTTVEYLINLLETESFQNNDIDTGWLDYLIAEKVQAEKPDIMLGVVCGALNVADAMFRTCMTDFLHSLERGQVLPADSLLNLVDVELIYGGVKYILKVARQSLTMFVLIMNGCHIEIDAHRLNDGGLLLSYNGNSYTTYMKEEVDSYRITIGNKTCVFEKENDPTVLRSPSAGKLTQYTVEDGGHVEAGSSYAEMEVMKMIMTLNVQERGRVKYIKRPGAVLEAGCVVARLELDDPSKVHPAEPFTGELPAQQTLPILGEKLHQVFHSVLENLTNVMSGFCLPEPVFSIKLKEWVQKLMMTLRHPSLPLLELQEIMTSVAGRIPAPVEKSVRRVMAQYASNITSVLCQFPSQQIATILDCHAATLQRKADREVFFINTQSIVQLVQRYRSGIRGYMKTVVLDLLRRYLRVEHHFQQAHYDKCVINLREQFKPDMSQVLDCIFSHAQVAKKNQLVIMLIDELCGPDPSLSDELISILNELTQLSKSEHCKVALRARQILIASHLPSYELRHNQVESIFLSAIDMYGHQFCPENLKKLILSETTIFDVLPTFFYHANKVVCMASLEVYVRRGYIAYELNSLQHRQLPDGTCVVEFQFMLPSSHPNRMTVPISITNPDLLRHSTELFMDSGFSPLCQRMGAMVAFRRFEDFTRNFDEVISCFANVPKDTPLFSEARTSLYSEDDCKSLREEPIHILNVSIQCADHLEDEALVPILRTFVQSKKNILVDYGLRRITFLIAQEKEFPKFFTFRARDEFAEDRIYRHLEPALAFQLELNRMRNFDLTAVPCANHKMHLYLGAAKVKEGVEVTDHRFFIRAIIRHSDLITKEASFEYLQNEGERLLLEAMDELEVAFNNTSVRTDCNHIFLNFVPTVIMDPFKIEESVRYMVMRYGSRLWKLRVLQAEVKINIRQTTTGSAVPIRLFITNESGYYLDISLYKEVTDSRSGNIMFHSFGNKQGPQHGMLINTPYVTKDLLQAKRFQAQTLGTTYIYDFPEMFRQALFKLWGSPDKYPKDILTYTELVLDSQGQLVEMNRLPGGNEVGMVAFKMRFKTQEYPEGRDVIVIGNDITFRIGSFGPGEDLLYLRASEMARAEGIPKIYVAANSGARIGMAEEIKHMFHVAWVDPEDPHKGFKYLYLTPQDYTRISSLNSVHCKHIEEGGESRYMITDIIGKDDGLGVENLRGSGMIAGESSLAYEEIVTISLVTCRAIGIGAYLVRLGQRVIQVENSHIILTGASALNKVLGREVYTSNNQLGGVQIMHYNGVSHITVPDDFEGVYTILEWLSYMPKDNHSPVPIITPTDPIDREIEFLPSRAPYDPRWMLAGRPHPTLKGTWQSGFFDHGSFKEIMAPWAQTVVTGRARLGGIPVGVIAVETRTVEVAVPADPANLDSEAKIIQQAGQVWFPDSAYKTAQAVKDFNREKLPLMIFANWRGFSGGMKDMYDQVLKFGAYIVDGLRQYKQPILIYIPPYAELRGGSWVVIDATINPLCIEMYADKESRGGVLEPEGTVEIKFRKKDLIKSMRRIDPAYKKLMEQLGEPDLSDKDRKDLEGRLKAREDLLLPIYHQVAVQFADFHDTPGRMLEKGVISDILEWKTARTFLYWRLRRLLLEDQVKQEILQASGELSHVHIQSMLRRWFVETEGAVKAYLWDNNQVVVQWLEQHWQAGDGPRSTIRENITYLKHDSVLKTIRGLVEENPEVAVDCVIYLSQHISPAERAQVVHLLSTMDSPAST
assay.info: In vitro ACC inhibition assay (ADP-Glo), hACC2
Assay type: biochemical
assay.context: Table 2b, additional results, 5 nM ACC2, 20 μM ATP, 20 μM acetyl-CoA
pIC50: −log10 of the molar value.

COc1ccc(F)cc1[C@H](Cn1c(=O)n(C(C)(C)C(=O)N2CCCC2)c(=O)c2c(C)c(-n3nccn3)sc21)OCCN(C)C [Compound I-75] :: < 7.40
COc1ccc(F)cc1[C@H](Cn1c(=O)n(C(C)(C)C(=O)NC(C)C)c(=O)c2c(C)c(-n3nccn3)sc21)OCCC(=O)N(C)O [Compound I-219] :: 8.00 to 8.30
CCNC(=O)C(C)(C)n1c(=O)c2c(C)c(-n3nccn3)sc2n(C[C@@H](OC(C)=O)c2cc(F)ccc2OC)c1=O [Compound I-260] :: 7.40 to 8.00

Dear reader, for each entry below, please note its pIC50.
1. COc1ccc(F)cc1[C@@H](O)Cn1c(=O)n(C(C)(C)C(N)=O)c(=O)c2c(C)c(-n3nccn3)sc21 [Compound I-194]
2. COc1ccc(F)cc1[C@@H](O)Cn1c(=O)n([C@H](C)C(=O)N2CCCC2)c(=O)c2c(C)c(-n3nccn3)sc21 [Compound I-195]
3. COc1ccc(F)cc1[C@H](Cn1c(=O)n(C(C)(C)C(=O)N2CC=CC2)c(=O)c2c(C)c(-n3nccn3)sc21)OC(C)C [Compound I-51]

1: 8.00 to 8.30; 2: 8.00 to 8.30; 3: 8.00 to 8.30

List the reported pIC50 of each molecule below.
1. CCNC(=O)C(C)(C)n1c(=O)c2c(C)c(-n3nccn3)sc2n(C[C@@H](O)c2cc(F)ccc2OC)c1=O [Compound I-254]
2. CCNC(=O)[C@H](C)n1c(=O)c2c(C)c(-n3nccn3)sc2n(C[C@H](OCCC#N)c2cc(F)ccc2OC)c1=O [Compound I-253]
3. COc1ccc(F)cc1[C@H](Cn1c(=O)n(C(C)(C)C(=O)NC(C)C)c(=O)c2c(C)c(-n3nccn3)sc21)OCCC#N [Compound I-91]
4. COCCO[C@@H](Cn1c(=O)n(C(C)(C)C(=O)NC2CCC2)c(=O)c2c(C)c(-n3nccn3)sc21)c1cc(F)ccc1OC [Compound I-100]

["< 7.40", "8.00 to 8.30", "7.40 to 8.00", "8.30 to 9.00"]

---

I'd appreciate it if you could supply IC90 values for the items below.
Tested on: Septoria tritici (St)
assay.info: Growth inhibition assay of fungal pathogens, St
Type: cell-based
assay.context: Zymoseptoria tritici, 48 h, Septoria tritici; growth inhibition at 48 hours vs 2% DMSO control; read-out: Concentration at 90% Inhibition St
Numbers only, in µg/mL.

CCOC(=O)C(C)(C)n1c(=O)c2c(C)c(-n3nccn3)sc2n(C[C@H](OCCO)c2cc(F)ccc2OC)c1=O :: 10

Please turn your attention to the following entry.
Output IC90 of `COc1ccc(F)cc1[C@H](Cn1c(=O)n([C@@H](C)C(=O)N(C)C(C)C)c(=O)c2c(C)c(-n3nccn3)sc21)OCCO`
10

---

System: C. krusei
assay.info: Antifungal Activity Assay (broth microtiter MIC), C. krusei
Assay type: cell-based, Candida krusei
assay.context: Pichia kudriavzevii, ATCC6258, 48 h, read-out: MIC, C. krusei ATCC 6258, Table 3b (additional results), 3 replicates, MIC recorded at 48 h
Provide the reported MIC of each item.

Example compounds with recorded MIC:
COc1ccccc1[C@H](Cn1c(=O)n(C(C)(C)C(=O)NC(C)C)c(=O)c2c(C)c(-n3nccn3)sc21)OCCN1CC(F)C1 :: 0.25 to 1 µg/mL
COc1ccc(F)cc1[C@H](Cn1c(=O)n(C(C)(C)C(=O)O)c(=O)c2c(C)c(-n3nccn3)sc21)O[C@H]1CC[C@@H](C#N)CC1 :: 1.01 to 2 µg/mL
COc1ccccc1[C@H](O)Cn1c(=O)n(C(C)(C)C(=O)NC(C)C)c(=O)c2c(C)c(-n3nccn3)sc21 :: 0.25 to 1 µg/mL
COc1ccc(F)cc1[C@H](Cn1c(=O)n(C(C)(C)C(=O)N(C)C)c(=O)c2c(C)c(-n3nccn3)sc21)OC(C)C :: 1.01 to 2 µg/mL
C=CCNC(=O)C(C)(C)n1c(=O)c2c(C)c(-n3nccn3)sc2n(C[C@H](OC2CCOCC2)c2cc(F)ccc2OC)c1=O :: 0.25 to 1 µg/mL
Cc1c(-n2nccn2)sc2c1c(=O)n(C(C)(C)C(=O)NC(C)C)c(=O)n2C[C@H](OCC(C)(C)O)c1cc(F)ccc1OCC#N :: 2.01 to 4 µg/mL
COc1ccc(F)cc1[C@H](Cn1c(=O)n([C@@H](C)C(=O)NC(C)C)c(=O)c2c(C)c(-n3nccn3)sc21)OCC(C)(C)O :: 2.01 to 4 µg/mL
COc1ccc(F)cc1[C@H](Cn1c(=O)n(C(C)(C)C(=O)NC(C)C)c(=O)c2c(C)c(-n3nccn3)sc21)OC[C@@H](C)O :: 1.01 to 2 µg/mL
COc1ccc(F)cc1[C@H](Cn1c(=O)n(C(C)(C)C(=O)NC(C)C)c(=O)c2c(C)c(-n3nccn3)sc21)OCCC(=O)NO :: 0.25 to 1 µg/mL

--- query ---
State recorded MIC with C. krusei, entry `COc1ccc(F)cc1[C@H](Cn1c(=O)n(C(C)(C)C(=O)NC(C)C)c(=O)c2c(C)c(-n3nccn3)sc21)OC(C)(C)C(C)=O` , no comment.
0.25 to 1 µg/mL

---

Would you kindly list IC90 for each of these compounds?
Test system: Rhizoctonia solani (Rs)
assay.info: Growth inhibition assay of fungal pathogens, Rs
Assay type: cell-based
assay.context: 48 h, mycelial plugs, growth inhibition at 48 hours vs 2% DMSO control, read-out: Concentration at 90% Inhibition Rs
Numbers only, in µg/mL.

Hey, can you go through the list below and give me IC90 for every item?
1. COc1ccc(F)cc1[C@H](Cn1c(=O)n(C(C)(C)C(=O)N2CCCC2)c(=O)c2c(C)c(-n3nccn3)sc21)OC1CCC(=O)CC1
2. CCNC(=O)C(C)(C)n1c(=O)c2c(C)c(-n3nccn3)sc2n(C[C@H](OCCC#N)c2ccccc2OC)c1=O
3. COc1ccc(Cl)cc1[C@H](Cn1c(=O)n(C(C)(C)C(=O)NC(C)C)c(=O)c2c(C)c(-n3nccn3)sc21)OCC(C)(C)C#N
4. COCCOc1ccc(F)cc1[C@H](Cn1c(=O)n(C(C)(C)C(=O)NC(C)C)c(=O)c2c(C)c(-n3nccn3)sc21)OC1CCOCC1
5. COc1ccc(F)cc1[C@H](Cn1c(=O)n([C@H](C)C(=O)N(C)C(C)C)c(=O)c2c(C)c(-n3nccn3)sc21)OCCO
6. COc1ccc(F)cc1[C@H](Cn1c(=O)n([C@H](C)C(N)=O)c(=O)c2c(C)c(-n3nccn3)sc21)OCC(C)(C)C#N

1: 0.4; 2: 0.08; 3: 2; 4: 0.08; 5: 0.08; 6: 2

---

System: Rhizoctonia solani (Rs)
assay.info: Growth inhibition assay of fungal pathogens, Rs
Format: cell-based
assay.context: 48 h, mycelial plugs, growth inhibition at 48 hours vs 2% DMSO control, read-out: Concentration at 90% Inhibition Rs
observed.property: IC90 (µg/mL)
One number for each entry, in µg/mL.

Look over these answered cases.
COc1ccc(F)cc1[C@H](Cn1c(=O)n(C(C)(C)C(N)=O)c(=O)c2c(C)c(-n3nccn3)sc21)OCC(C)C [Compound I-8] :: 2
COc1ccc(F)cc1[C@H](Cn1c(=O)n(C(C)(C)C(=O)NC(C)C)c(=O)c2c(C)c(-n3nccn3)sc21)O[C@H]1C[C@@H](O)C1 [Compound I-239] :: 0.08
COc1ccc(F)cc1[C@H](Cn1c(=O)n(C(C)(C)C(N)=O)c(=O)c2c(C)c(-n3nccn3)sc21)OC1CCOCC1 [Compound I-1] :: 2
COc1ccccc1[C@H](Cn1c(=O)n(C(C)(C)C(N)=O)c(=O)c2c(C)c(-n3nccn3)sc21)OC1CCOCC1 [Compound I-14] :: 10
COc1ccc(F)cc1[C@H](Cn1c(=O)n([C@@H](C)C(=O)N(C)C(C)C)c(=O)c2c(C)c(-n3nccn3)sc21)OCCO [Compound I-78] :: 0.08
COc1ccc(F)cc1[C@H](Cn1c(=O)n([C@@H](C)C(=O)N2CCCC2)c(=O)c2c(C)c(-n3nccn3)sc21)OC(C)C [Compound I-39] :: 0.4
Cc1c(-n2nccn2)sc2c1c(=O)n(C(C)(C)C(=O)NC(C)C)c(=O)n2CCc1cc(F)ccc1OC1CCOCC1 [Compound I-279] :: 10
COc1ccc(F)cc1[C@H](Cn1c(=O)n(C(C)(C)C(=O)N2CC(O)C2)c(=O)c2c(C)c(-n3nccn3)sc21)OC1CCOCC1 [Compound I-26] :: 10

Batch of 6 molecules: report IC90 for each.
1. CCNC(=O)C(C)(C)n1c(=O)c2c(C)c(-n3nccn3)sc2n(C[C@H](OC2CCOCC2)c2cc(F)ccc2OC)c1=O [Compound I-22]
2. COc1ccccc1[C@H](Cn1c(=O)n(C(C)(C)C(=O)NCC(C)C)c(=O)c2c(C)c(-n3nccn3)sc21)OC1CCOCC1 [Compound I-13]
3. COc1ccccc1[C@H](Cn1c(=O)n([C@@H](C)C(=O)N(C)C(C)C)c(=O)c2c(C)c(-n3nccn3)sc21)OCCC#N [Compound I-206]
4. Cc1c(-n2nccn2)sc2c1c(=O)n(C(C)(C)C(=O)NC(C)C)c(=O)n2C[C@H](OCCC#N)c1cc(F)ccc1O [Compound I-246]
5. COc1ccc(F)cc1[C@H](Cn1c(=O)n([C@H](C)C(=O)NC2CCC2)c(=O)c2c(C)c(-n3nccn3)sc21)OCCO [Compound I-84]
6. COc1ccc(F)cc1[C@H](Cn1c(=O)n(C(C)(C)C(=O)NC2CCC2)c(=O)c2c(C)c(-n3nccn3)sc21)OC1CCOCC1 [Compound I-27]

0.4
0.08
0.08
0.4
0.08
0.08

Below are 6 molecules. Give each one its IC90.
1. COc1ccc(F)cc1[C@H](Cn1c(=O)n(C(C)(C)C(=O)N2CCCC2)c(=O)c2c(C)c(-n3nccn3)sc21)OC[C@H](C)O [Compound I-48]
2. CCc1ccc(F)cc1[C@H](Cn1c(=O)n(C(C)(C)C(=O)NC(C)C)c(=O)c2c(C)c(-n3nccn3)sc21)OCC(C)(C)C#N [Compound I-238]
3. COc1ccc(F)cc1[C@H](Cn1c(=O)n(CC(=O)N2CCCC2)c(=O)c2c(C)c(-n3nccn3)sc21)OC(C)C [Compound I-36]
4. COc1ccc(C#N)cc1[C@H](Cn1c(=O)n(C(C)(C)C(=O)NC(C)C)c(=O)c2c(C)c(-n3nccn3)sc21)OCC(C)(C)C#N [Compound I-223]
5. CCc1ccc(F)cc1[C@@H](Cn1c(=O)n(C(C)(C)C(=O)NC(C)C)c(=O)c2c(C)c(-n3nccn3)sc21)OC[C@H](C)C#N [Compound I-245]
6. COc1ccc(F)cc1[C@@](C)(Cn1c(=O)n(C(C)(C)C(=O)NC(C)C)c(=O)c2c(C)c(-n3nccn3)sc21)OCCC#N [Compound I-230]

2
0.08
0.4
2
0.08
0.08

Hello, I would appreciate it if you could give IC90 for each entry below.
1. COc1ccc(F)cc1[C@H](Cn1c(=O)n(C(C)(C)C(=O)NC2CC2)c(=O)c2c(C)c(-n3nccn3)sc21)OC(C)C [Compound I-73]
2. Cc1c(-n2nccn2)sc2c1c(=O)n(C(C)(C)C(=O)NC(C)C)c(=O)n2C[C@H](OC(C)C)c1cc(F)ccc1OCCO [Compound I-53]

1. 0.4
2. 0.08

Origin of the recorded values: patent US10800791B2
